# System: MCF7
# Assay remarks: in vitro test at 1.0×10^−5 M, Breast cancer cell
# Format: cell-based
# Experimental conditions: 1.0×10^−5 molal concentration (M)
Measured property: inhibition effect on cancer cell line (Table 2 value)
I only need the number, thanks.

Measured inhibition effect on cancer cell line (Table 2 value), CC1(C)Nc2ccc3c(c2N1)C(=O)c1ccccc1C3=O [No. 20] : 83.58

Form field inhibition effect on cancer cell line (Table 2 value), entry CCc1nc2ccc3c(c2[nH]1)C(=O)c1ccccc1C3=O [No. 4] : 69.82

The reported value for O=C1c2ccccc2C(=O)c2c1ccc1nccnc21 [No. 25, Naphthol-[2,3-f]quinoxaline-7,12-dione] in terms of inhibition effect on cancer cell line (Table 2 value) is 39.68

For record O=C1c2ccccc2C(=O)c2c1ccc1[nH]c(=O)c(=O)[nH]c21 [No. 26] the listed inhibition effect on cancer cell line (Table 2 value) is 85.17
